Values were extracted from ChEMBL document CHEMBL1938317.

- test system: Serine/threonine-protein kinase B-raf (Homo sapiens)
- Sequence (P15056 whole entry): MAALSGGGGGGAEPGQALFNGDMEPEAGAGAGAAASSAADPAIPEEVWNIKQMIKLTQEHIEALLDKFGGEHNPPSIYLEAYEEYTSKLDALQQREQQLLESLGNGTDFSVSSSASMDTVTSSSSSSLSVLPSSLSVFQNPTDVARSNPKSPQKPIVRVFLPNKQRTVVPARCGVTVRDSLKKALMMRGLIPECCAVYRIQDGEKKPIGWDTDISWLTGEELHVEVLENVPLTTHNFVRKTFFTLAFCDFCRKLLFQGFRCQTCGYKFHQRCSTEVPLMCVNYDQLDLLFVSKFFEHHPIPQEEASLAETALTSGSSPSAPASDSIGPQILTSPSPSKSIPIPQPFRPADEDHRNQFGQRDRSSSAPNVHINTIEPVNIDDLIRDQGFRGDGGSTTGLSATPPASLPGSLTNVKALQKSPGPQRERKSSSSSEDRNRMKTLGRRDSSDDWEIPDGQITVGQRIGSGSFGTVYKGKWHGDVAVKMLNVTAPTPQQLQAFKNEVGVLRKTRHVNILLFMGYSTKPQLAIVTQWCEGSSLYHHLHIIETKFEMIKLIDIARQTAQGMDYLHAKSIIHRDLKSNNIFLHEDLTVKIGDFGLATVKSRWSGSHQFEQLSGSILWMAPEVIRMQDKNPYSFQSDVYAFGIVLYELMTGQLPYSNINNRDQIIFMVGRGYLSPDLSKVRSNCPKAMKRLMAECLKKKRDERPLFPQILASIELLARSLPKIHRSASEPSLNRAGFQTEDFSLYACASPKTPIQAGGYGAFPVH
Classify: TRUE when Kd is strictly less than 5 µM; FALSE when Kd is not.

>>> df
                               smiles_input  category_label
0           Nc1nc(Nc2cccc(O)c2)c2[nH]cnc2n1           FALSE
1      Nc1nc(Nc2ccc(Cl)c(Cl)c2)c2nc[nH]c2n1            TRUE
2  NC(=O)Cc1ccc(Nc2nncc3c(-c4ccc(O)cc4)cccc23)cc1           FALSE
3      COc1cc(Nc2nc(N)nc3[nH]cnc23)cc(OC)c1            TRUE
4          Nc1nc(Nc2cccc(Cl)c2)c2nc[nH]c2n1            TRUE
